Biological target: T1, recombinant human PD-L1 extracellular domain (ECD) protein (cat #FCL0784B, G&P Biosciences) (human, UniProt Q9NZQ7 19-238)
T1 construct: extracellular domain; Bought protein; also called hPD-L1 protein; human PD-L1 protein
T1 sequence (Q9NZQ7 19-238): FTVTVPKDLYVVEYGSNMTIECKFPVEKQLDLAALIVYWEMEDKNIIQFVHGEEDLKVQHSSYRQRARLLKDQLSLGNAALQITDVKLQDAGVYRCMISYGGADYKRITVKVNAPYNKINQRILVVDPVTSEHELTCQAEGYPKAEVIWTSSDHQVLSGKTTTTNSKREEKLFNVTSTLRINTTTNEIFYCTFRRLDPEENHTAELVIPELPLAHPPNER
Assay: SPR, human PD-L1 ECD immobilised on CM5 chip
Procedure: Evaluation of Binding Kinetics and Affinity By Surface Plasmon Resonance (SPR). […] PD-L1 protein was diluted to 10 μg/mL with sodium acetate buffer (pH 5.0, GE Healthcare, PA) and covalently coated onto a CM5 sensor chip (CM Dextran Sensor Chip, Biosensing Instrument) using the standard Amine Coupling Kit (GE Healthcare, PA). Approximately 6500 RU of PD-L1 protein were immobilized onto the chip. […] The results were analyzed using the software of Bi data analysis software. […]
No end group written: not given here.
MEASURED_PARAMETER: kon
Report field: quantity (unit follows the number).

Solved entries (count: 3):
>>> result_value("WHFSYNWRWLPP (not fully specified, 12-mer from phage display) [CLP003 peptide]")
"22600 M⁻¹ s⁻¹"
>>> result_value("WHRSYYTWNLNT (not fully specified, 12-mer from phage display) [CLP002 peptide]")
"4520 M⁻¹ s⁻¹"
>>> result_value("HYPFRPHANQAS (not fully specified, 12-mer from phage display) [CLP001 peptide]")
"5190 M⁻¹ s⁻¹"

# context switch: different binder, same kon
Ask | Requested read-out: kon. Entry: DYHDPSLPTLRK (not fully specified, 12-mer from phage display) [CLP004 peptide]
Reply | 5140 M⁻¹ s⁻¹
